System: CD2F1 mice, L1210 leukemia ip, survival T/C
experiment: NCI In Vivo Anticancer Drug Screen. Data for tumor model L1210 Leukemia (intraperitoneal) in CD2F1 (CDF1) mice
protocol.conditions: endpoint: mean survival time; dose: 200.0 mg/kg/injection; schedule: Q01DX009 (ip); vehicle: saline with Tween-80; higher = longer survival
Inconclusive results and toxic doses are left out.
Hi there, I'd appreciate the recorded T/C for every entry that follows.

Item CC1=COC2CCCCC2O1 (stereo unspecified) (tested in a mixture with another compound) was tested on CD2F1 mice, L1210 leukemia ip, survival T/C; the reported T/C is 97 % of control

Reported CD2F1 mice, L1210 leukemia ip, survival T/C T/C for item `Cc1ccc(S(=O)(=O)Oc2cccc(C)c2)cc1` was 96 % of control

Entry O=C(NC(O)C(Cl)(Cl)Cl)C(Cl)(Cl)Cl (stereo unspecified) : T/C on CD2F1 mice, L1210 leukemia ip, survival T/C = 100 % of control

The reported T/C value, CD2F1 mice, L1210 leukemia ip, survival T/C, for C=C(C)C(=O)OCCO (tested in a mixture with another compound) reads 101 % of control

Given the compound `COC(=O)Nc1nc2ccc(C3(c4ccc(F)cc4)OCCO3)cc2[nH]1` and test system CD2F1 mice, L1210 leukemia ip, survival T/C, the measured T/C is 87 % of control

With CD2F1 mice, L1210 leukemia ip, survival T/C as the test system, `CC(C)/C(=N\Nc1ccc([N+](=O)[O-])cc1[N+](=O)[O-])c1ccccc1` showed T/C of 101 % of control

Summary: COc1ccc(C2C3C=CC(C3)C2C(=O)O)cc1 (stereo unspecified) , CD2F1 mice, L1210 leukemia ip, survival T/C, T/C = 96 % of control

Record CC(Oc1ccccc1)C(=O)c1ccccc1 (stereo unspecified) / CD2F1 mice, L1210 leukemia ip, survival T/C, T/C recorded as 93 % of control

T/C for CD2F1 mice, L1210 leukemia ip, survival T/C with input `O=C(c1ccccc1)c1cccc(C(Br)Br)c1` equals 93 % of control

Sample O=C(Cc1ccccc1)NC(CSSCC(NC(=O)Cc1ccccc1)C(=O)O)C(=O)O (stereo unspecified) , system: CD2F1 mice, L1210 leukemia ip, survival T/C. Its T/C is 98 % of control

Fill in: CD2F1 mice, L1210 leukemia ip, survival T/C T/C for `O=c1[nH]ccc2sccc12` = 105 % of control

---

Would you mind telling me the reported T/C of each entry?
Test system: CD2F1 mice, L1210 leukemia ip, survival T/C
experiment: NCI In Vivo Anticancer Drug Screen. Data for tumor model L1210 Leukemia (intraperitoneal) in CD2F1 (CDF1) mice
protocol.conditions: endpoint: mean survival time; dose: 25.0 mg/kg/injection; schedule: Q04DX003 (ip); vehicle: saline with Tween-80; higher = longer survival
Inconclusive results and toxic doses are left out.

For record `COc1cc2ccc(CCN)cc2cc1OC` the listed T/C is 102 % of control

T/C for `Clc1ccc2nnnn2n1` is 96 % of control

According to the records, this molecule `Nc1nc(N)c2nc(-c3ccccc3)c(N)nc2n1` displays T/C of 95 % of control

The reported value for CCC12NC(=O)NC1(C)NC(=O)N2 (stereo not drawn) in terms of T/C is 110 % of control

Recorded T/C (molecule `CCOC(=O)c1ccc(NC(=O)Nc2cc(Cl)c(Cl)cc2C)cc1` ): 90 % of control

Per the record, `CCC(CC)(C[NH-])C[NH-].[Cl][Pt+2][Cl]` has T/C of 307 % of control

Briefly, T/C measured for `ON(C(=Nc1ccccc1)c1ccccc1Cl)c1ccccc1` : 102 % of control

The molecule `Cc1ccc(C(C)C)c(OCCCBr)c1` showed T/C equal to 101 % of control
